Molecular target: T1, monkey PTK7 protein (extracellular sequence of monkey PTK7 with C-terminal 6×His tag) (monkey)
T1 chain: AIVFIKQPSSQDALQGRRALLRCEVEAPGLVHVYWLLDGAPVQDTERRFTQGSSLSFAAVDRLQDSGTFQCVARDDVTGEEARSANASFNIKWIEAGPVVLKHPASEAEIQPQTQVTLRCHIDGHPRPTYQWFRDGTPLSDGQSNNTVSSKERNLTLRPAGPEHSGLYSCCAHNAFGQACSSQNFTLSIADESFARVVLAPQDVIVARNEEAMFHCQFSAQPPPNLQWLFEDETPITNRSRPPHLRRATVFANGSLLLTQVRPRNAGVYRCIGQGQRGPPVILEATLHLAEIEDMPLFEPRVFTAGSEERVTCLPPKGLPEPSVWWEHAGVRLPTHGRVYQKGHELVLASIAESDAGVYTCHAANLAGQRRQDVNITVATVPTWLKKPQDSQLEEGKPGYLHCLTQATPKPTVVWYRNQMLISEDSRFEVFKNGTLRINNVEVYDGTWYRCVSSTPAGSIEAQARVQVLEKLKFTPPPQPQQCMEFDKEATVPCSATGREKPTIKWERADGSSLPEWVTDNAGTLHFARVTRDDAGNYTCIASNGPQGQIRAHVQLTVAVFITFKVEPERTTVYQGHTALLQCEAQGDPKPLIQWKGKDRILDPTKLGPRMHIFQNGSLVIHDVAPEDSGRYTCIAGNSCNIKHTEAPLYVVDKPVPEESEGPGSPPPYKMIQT
Experiment: ELISA, coated monkey PTK7 protein 1 µg/ml
MEASURED_PARAMETER: EC50 (µg/mL)
Use µg/mL as the unit, but write only the number.

{"columns": ["BINDER", "QUANTITY_UNIT", "EC50"],
 "data": [
  ["Hu24 (PTK7 control antibody, taken from Hu24 in the Patent CN201580030255) (antibody) chain 1: QVQLVQSGPEVKKPGASVKVSCKASGYTFTDYAVHWVRQAPGKRLEWIGVISTYNDYTYNNQDFKGRVTMTRDTSASTAYMELSRLRSEDTAVYYCARGNSYFYALDYWGQGTSVTVSS chain 2: EIVLTQSPATLSLSPGERATLSCRASESVDSYGKSFMHWYQQKPGQAPRLLIYRASNLESGIPARFSGSGSGTDFTLTISSLEPEDFAVYYCQQSNEDPWTFGGGTKLEIK", "µg/mL", 0.0133],
  ["57F4 (anti-human PTK7 murine antibody) (antibody, V domains shown, Murine antibody purified from hybridoma supernatant on Protein A) VH: EVQLVESGGGLVKPGGSRKLSCAASGFTFSDYGMHWVRQAPEKGLEWVAYISSGSSALYYADTVKGRFTISRDNVKNTLFLQMTSLRSEDTAMYYCARRSYYSYFAYWGQGTLVTVSA VL: QIVLTQSPALMAASPGEKVTITCRVSSSISSSTLHWYQQKSETSPKPWIYGTSNLASGVPVRFSGSGSGTSYSLTISSMEAEDAATYYCQQWSSFPFTFGSGTKLEIK", "µg/mL", 0.0158],
  ["101A6 (anti-human PTK7 murine antibody) (antibody, V domains shown, Murine antibody purified from hybridoma supernatant on Protein A) VH: EVKLVESGGGLVQPGGSLSLSCAASGFTFTDYYLSWVRQPPGKALEWLALIRNKANGYTTEYSASVKGRFTISRDSSQSILYLQMDALRAEDSATYYCARDTLAAYWGQGTSVTVSS VL: DIVMTQSHKFMSTSVGDRVSFTCKASQDVGSAVIWYQQKPGQSPKLLIYWASTRHTGVPDRFTGSGSGTDFTLTISNVQSEDLADYFCQQYSSYPLTFGAGTKLEIK", "µg/mL", 0.0187],
  ["64A10 (anti-human PTK7 murine antibody) (antibody, V domains shown, Murine antibody purified from hybridoma supernatant on Protein A) VH: QVQLKESGPVLVAPSQSLSITCTVSGFSLTSYGVYWVRQPPGKGPEWLGVIWTSGNTNYNSALMSRLSISKDNSKSQVFLKMNSLQTDDTAMYYCVKHDGGNYVGVMNYWGQGTSVTVSS VL: DIQMTQSPATLSVTPGDRVSLSCRASQSISDYLHWYQQKSQESPRLLIKYASQSISGIPSRFSGSGSGSDFTLSINSVEPEDVGVYYCQNGHSFPPTFGGGTKLEIK", "µg/mL", 0.00765]
]}

// switching to the query binder
Lookup: Quick check: EC50 of 8H3 (anti-human PTK7 murine antibody) (antibody, V domains shown, Murine antibody purified from hybridoma supernatant on Protein A) VH: EVKLVESGGGLVQPGGSLSLSCAASGFTFTDYYMSWVRQPPGKALEWLALIRNKANGYTTEYSASVKGRFTISRDNSQSILYLQMNALRAEDSATYYCARDSFEVYWGQGTLVTVSA VL: DIVLTQSHKFMSTSVGDRVNITCKASQDVGTAVAWYQQKPGQSPKLLIYWASTRHTGVPDRFTGSGSGTDFTLTIRNVQSEDLADYFCQQFSSFPFTFGGGTKLEIK ?
Found: 0.0168
